Origin of measurements: patent US20190298717A1

Let's look at some molecules and their measured EC50.
Test system: SH-SY5Y cells
protocol summary: H2O2-EC50 of hydralazine and its analogs (protection from H2O2 stress)
Type: cell-based
condition info: Homo sapiens
Procedure: To generate intracellular aldehydes, the inventors treated human neuroblastoma cell line (SH-SY5Y) with 100 μM hydrogen peroxide (H2O2) for 24 h. Carbonyl groups were quantified using 2,4-DNPH (dinitrophenylhydrazine) assay. Cell Viability and Cytotoxicity Assay. Cell growth was analyzed using the MTT cell viability assay. […] Absorbance was read at 570 nm wavelength in a 96-well plate reader. Cell toxicity was detected using a LDH cell toxicity assay kit (Promega, Fitchburg Wis.). […]

{"molecule": "NNc1nncc2ccccc12 [Hydralazine]", "target entity": "SH-SY5Y cells", "EC50": "6.78 µM"}
{"molecule": "NNc1nnc(O)c2ccccc12 [4-Hydrazinylphthalazin-1-ol, 4-Hydrazinylphthalazin-1-ol]", "target entity": "SH-SY5Y cells", "EC50": "≥ 10 µM"}
{"molecule": "Cc1nc2c3ccccc3c(NN)nn2n1", "target entity": "SH-SY5Y cells", "EC50": "≥ 50 µM"}
